Data provenance: PubChem BioAssay AID518

TEST TARGET: Alkaline phosphatase, tissue-nonspecific isozyme (Homo sapiens)
MEASUREMENT NOTES: inhibition of tissue-nonspecific alkaline phosphatase – biochemical, luminescent (AID 518);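 also: plate controls were vehicle for no effect and reference inhibitor for full effect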
TEST CONTEXT: purified TNAP enzyme, luminescent substrate readout; at 20 µM; active compounds read high
Among all 64,000 compounds or so, about 55 (0.09%) were called active. Only a sample is shown.
Documented inhibition across a set of molecules
Entry rule: numbers only, all in %.

Please report inhibition with Alkaline phosphatase, tissue-nonspecific isozyme (Homo sapiens) for item O=c1c2ccccc2nc(SCc2nnc(-c3ccccc3)o2)n1-c1ccccc1 .
3.6

Using Alkaline phosphatase, tissue-nonspecific isozyme (Homo sapiens) as the test system, report measured inhibition of O=C(c1cccnc1)N1CCN(C(=O)c2cccs2)CC1 .
4.7

Provide the reported inhibition (system: Alkaline phosphatase, tissue-nonspecific isozyme (Homo sapiens)) for CNc1oc(Cc2ccccc2)nc1S(=O)(=O)c1ccccc1
9.1

Check Alkaline phosphatase, tissue-nonspecific isozyme (Homo sapiens) data and give inhibition for CCN1C(=O)OC2(CCCCC2)C1(C)O (stereo not drawn) .
13

Output reported inhibition of the molecule CS(=O)(=O)N(CC(=O)NC1CCCCC1)c1cccc(Cl)c1 on Alkaline phosphatase, tissue-nonspecific isozyme (Homo sapiens).
6.8

Write down measured inhibition (Alkaline phosphatase, tissue-nonspecific isozyme (Homo sapiens)) for this molecule. O=C(NCCN1CCOCC1)c1cc2ccccc2o1
9.4

Enter recorded inhibition with Alkaline phosphatase, tissue-nonspecific isozyme (Homo sapiens) for COc1ccc(CC(=O)Nc2cccc(-c3nnc(-c4ccccc4)o3)c2)cc1OC here.
6.4

Specify the recorded inhibition for Cc1cc2c(c(Sc3ccccc3)n1)C(=O)OC2 , system: Alkaline phosphatase, tissue-nonspecific isozyme (Homo sapiens).
7.5

State recorded inhibition with Alkaline phosphatase, tissue-nonspecific isozyme (Homo sapiens), entry COc1cc(/C=N/n2cnnc2)ccc1OCCOc1ccccc1 , no comment.
2.9

State inhibition on Alkaline phosphatase, tissue-nonspecific isozyme (Homo sapiens). Entry: CCOC(=O)c1[nH]c(CSc2nnc(-c3ccncc3)n2CCOC)c(C(=O)OCC)c1C
10.1

GET inhibition | system: Alkaline phosphatase, tissue-nonspecific isozyme (Homo sapiens) | item: COc1cccc(N2CCN(C3CC(=O)N(c4ccc(F)c(Cl)c4)C3=O)CC2)c1 (stereo not drawn)
7.6
